Biological target: GABARAP protein (recombinant) (UniProt O95166 1-117)
Sequence (O95166 whole entry): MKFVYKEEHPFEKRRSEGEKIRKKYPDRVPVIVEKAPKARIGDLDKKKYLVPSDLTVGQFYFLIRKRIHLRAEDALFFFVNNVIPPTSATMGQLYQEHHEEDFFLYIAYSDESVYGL
Assay: NMR; GABARAP residue I32
Non-standard residues stand in square brackets, D forms with d. No end group written: not given here. pS = N[C@@H](COP(=O)(O)O)C(=O)O
Kd by entry:

binder	quantity.unit	Kd
EALNSGVEYYWDQLNET [AMBRA1-LIR peptide, unphosphorylated (P0)]	µM	61
EALN[pS]GVEYYWDQLNET [AMBRA1-LIR peptide, S1014 phosphorylated (P1)]	µM	7

Data provenance: paper PMC6138665
